System: MDA-MB-468 breast
Assay: NCI-60 one-dose screen, 48 h
Details: 10 µM unless noted
About 83,000 compounds went through this panel and 20% of them were active in at least one assay; those are over-represented in the sample as a whole. Activity calls are given as the source filed them. Rule for the calls: active = growth percent below 10; inactive = the rest.
Outcome codes: 1 for active, 0 for inactive

compound	class
CCOC(=O)C(CCCCC(NC(C)=O)(C(=O)OCC)C(=O)OCC)(NC(C)=O)C(=O)OCC	0
O=c1c2cccc3c(Nc4c(F)cccc4F)ccc(c32)c2nc3ccccc3n12	1
CSc1nc2sc3cccc(Cl)c3n2c(=N)c1C#N	0
COc1ccc(S(=O)(=O)NCCCNc2nccc(-c3c(-c4cccc([N+](=O)[O-])c4)nc4sccn34)n2)cc1	0
Cc1c(Cn2cc(COc3ccc(Br)cc3)nn2)c(C)c(Cn2cc(COc3ccc(Br)cc3)nn2)c(C)c1Cn1cc(COc2ccc(Br)cc2)nn1	0
CCCCCCCCCCCCc1ccc(C(=O)/C=C/C(=O)O)cc1	1
Cc1nn(-c2ccccc2)c2nc3c(nc12)C1=NCCN1C(c1ccc(Cl)cc1)N3 (centres undefined)	0
CCC1CCc2nc3sc(C(=O)Nc4ccccc4F)c(N)c3cc2C1 (centres undefined)	0
CCN(c1ccccc1)S(=O)(=O)c1cc([N+](=O)[O-])ccc1Cl	1

---

System: IGROV1 ovarian
Assay: NCI-60 one-dose screen, 48 h (100 = growth as untreated, 0 = no growth, -100 = all killed)
Conditions: 10 µM
This is part of a sample that, as a whole, favours compounds with a hit. Of some 83,000 tested, about 20% had one in any assay.
Classify: criterion met when growth is strictly less than 60%; criterion not met when growth is not.

compound	class
COc1ccc(C2c3sc4ccc(C)cc4c3Oc3nc[nH]c(=O)c32)cc1 (centres undefined)	criterion not met
O=C1NC2C=CC=CC2/C1=C1/SC(=S)N(C2CC(=O)N(c3ccc(Br)cc3)C2=O)C1=O (centres undefined)	criterion not met
COc1ccc(OC)c(-n2cc(C#N)c(N)c2C(=O)c2ccc(Cl)cc2Cl)c1	criterion met
Cc1ccc(COc2ccc(NC(=O)Nc3ccc(Cl)c(C(F)(F)F)c3)cc2)cc1	criterion not met
C#C[C@]1(O)CC[C@H]2[C@@H]3CC=C4c5sc(Nc6ccc(N(C)C)cc6)nc5CC[C@]4(C)[C@H]3CC[C@@]21C	criterion met
O=C(c1ccc(F)cc1)C(c1c[nH]c2ccccc12)c1c[nH]c2ccccc12	criterion met
CC1(C)CC[C@]2(C(=O)O)CC[C@]3(C)C(=CCC4[C@@]5(C)C[C@@H](O)[C@@H]6OC(c7cccc(F)c7)OC[C@@]6(C)C5CC[C@]43C)C2C1 (some centres undefined)	criterion not met
CC(C)(C)c1cc(/C=C2\S/C(=N/c3ncn[nH]3)NC2=O)cc(C(C)(C)C)c1O	criterion met

---

Test system: MDA-MB-468 breast
Assay: NCI-60 one-dose screen, 48 h
Conditions: 10 µM unless noted
Compounds without any hit were thinned out: in the full panel of roughly 83,000, 20% have a hit. Calls of active or inactive are those of the source. The calls were made as follows: active = growth percent below 10; inactive = the rest.
Outcomes: yes (1) for active, no (0) for inactive

compound	class
O=C(N=Nc1c(O)[nH]c2ccc(F)cc12)c1cc2ccccc2[nH]1	no (0)
O=S(=O)(NCCCNc1nccc(-c2[nH]c(-c3ccccc3)nc2-c2ccc(Cl)c(O)c2)n1)c1cccc(F)c1	no (0)
O=C1C(Nc2ccccn2)=C(I)C(=O)c2ncccc21	yes (1)
O=C(c1ccccc1)N(CCCl)C(=O)N(CCCl)C(=O)c1ccccc1	no (0)
Clc1cc(Cl)cc(-c2ccc(-c3ccc(/C=N/NC4=NCCN4)cc3)s2)c1	yes (1)
CN(C)c1nc2c(N)ncnc2n1C1OC(CO)C(O)C1O (stereo not given)	no (0)
O=C(NCc1ccccc1)c1ccc2c(c1)NC(=O)[C@@H]1CCCN21	no (0)
Cc1cccc(-c2nc(C(C)C)sc2-c2ccnc(NCCCNS(=O)(=O)c3ccc(Cl)cc3)c2)c1	no (0)
COc1cccc2c1C=C1CCCCC3=Cc4c(OC)cccc4OC13O2	no (0)
CCN1C(=S)N(CC)C2C1NN=C1SC(c3ccccc3)=CC(=O)N12 (stereo not given)	no (0)
COc1ccc(/C=c2\nc3n(-c4ccccc4)c4nc5c6c(sc5c(=N)n4n-3c2=O)CCCC6)cc1	no (0)
Cc1ccc(-c2csc(NC(=O)c3ccccc3CN3C(=O)c4ccccc4C3=O)n2)cc1	no (0)
CN(C)Cc1ccc(NC(=O)c2cncc(C#Cc3cnc(N)c4ncccc34)c2)cc1C(F)(F)F	no (0)
CC(=O)/C(N=Nc1ccc(S(=O)(=O)c2ccc(N=N/C(C(C)=O)=C(/C)O)cc2)cc1)=C(\C)O	no (0)
COc1cccc(C(=O)OCC(O)C(=O)NC23CC4CC(CC(C4)C2)C3)c1 (stereo not given)	no (0)
COc1ccc(-c2c[nH]c(C(=O)O)c2-c2cc(OC)c3c(c2OC)OCO3)cc1	no (0)
CC(=O)Oc1c(C)c(C)c2c(c1C)CCC(C)(CC(=O)OCCCCCCCCCCC[P+](c1ccccc1)(c1ccccc1)c1ccccc1)O2 (stereo not given)	yes (1)
COc1cc(-c2csc(NC(=O)c3cc(C(F)(F)F)cc(C(F)(F)F)c3)n2)cc(OC)c1OC	yes (1)
NC(=S)Nc1cccc(O)c1	no (0)
Cn1cc(-c2nnc(N)nc2-c2c[nH]c3ccc(F)cc23)c2cc(Br)ccc21	yes (1)
